# Test method notes: Components of the Cytosolic LPS Sensing Pathway: Gene Identification via Genome-wide siRNA Screen;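 note: robust z of the log signal after scaling to non-targeting control siRNA wells of the plate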
# Experimental context: RAW264.7 macrophages, IL-1a HTRF, actives lie on both sides, screened at 100 nM (by protocol), cells primed 5 h with Pam3CSK4 first
The campaign covered roughly 53,000 sequences. About 3,700 (7%) were called active. Shown is part of a subset that was picked to be rich in actives.
The entries below are paired with their reported z-score.
Number, no unit, nothing else.

These recorded examples may help you get a feel for the data.
CCUGGUUAAAGGUUAUCCATT against Commd7 = -3.9e-05
GGUGUGUAUGGUGCUAGGATT against Olfr1507 = -2.43
CCCAAAAUACAUCAUCAAUTT against Psmc2 = -0.444
GGACUGCUGGGAGAACUUUTT against Zcchc3 = 0.76
GGUGGUUACCAUAGCUGGUTT against Arid2 = 1.67
CCAUUGAACAGCAGAUUGGTT against Atp7a = 0.81
GGUGUCCACGGUGGUUUGATT against Pfn1 = -0.268
AUCUGUUCCGGAGGAAUUUTT against 1700029I15Rik = 3.85
GGUUCUAUGCUGAAGGUCATT against Lhfpl2 = 0.358
GGAUCCUUACAAUAACAUUTT against Mmut = 2.04

The recorded z-score for entry CAAGUACAAGCAGUUGACCTT against BC061237 equals -0.0958

The recorded z-score for entry GGAAAUUGCUCAAAAAAGGTT against Asb3 equals 0.725

The recorded z-score for entry GCUUAAGGGAUAACAUAUUTT against Svs2 equals -0.756

The recorded z-score for entry CGGAUUAGUAUAAAUGUAGTT against Prss16 equals -0.109

The recorded z-score for entry GGAAUGUCGAAGAAAAUGCTT against Adam15 equals -0.197

The recorded z-score for entry GGACAAGGCCCUCAUGAUUTT against Nek8 equals -0.468

The recorded z-score for entry GCCGACAACACAAAAUUAUTT against Vps26b equals 0.4

====

# Test method notes: Components of the Cytosolic LPS Sensing Pathway: Gene Identification via Genome-wide siRNA Screen;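 note: robust z of the log signal after scaling to non-targeting control siRNA wells of the plate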
# Experimental context: RAW264.7 macrophages, IL-1a HTRF, actives lie on both sides, screened at 100 nM (by protocol), cells primed 5 h with Pam3CSK4 first
Among all 53,000 sequences or so, about 3,700 (7%) were called active. The full list was thinned out, with actives kept by preference.
Doc: threshold -2 (exclusive). Items with z-score beneath it return t; others return f.

Reference set (5 entries):
GUUGGCAUAUUUUAUGGCATT against Olfr1033 = f
GGGAUAACACUCCUGUUUUTT against F630111L10Rik = f
GGAGCCCUUGCUCUUUAACTT against Izumo1r = t
GUUUUGGAUUCCUCUGUCATT against Olfr1097 = f
GGCUUUUGACUUUACCCUATT against Acy3 = f

API: the following record is the query input.
Query string: Hello, I'm reviewing records and need to know if z-score of CCACUGAUAACUCGAUUUGTT against Nrp1 is below -2. Could you check?
Result string: f

====

# Test method notes: Components of the Cytosolic LPS Sensing Pathway: Gene Identification via Genome-wide siRNA Screen;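 note: robust z of the log signal after scaling to non-targeting control siRNA wells of the plate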
# Experimental context: RAW264.7 macrophages, IL-1a HTRF, actives lie on both sides, screened at 100 nM (by protocol), cells primed 5 h with Pam3CSK4 first
The whole screen tested about 53,000 sequences, of which about 3,700 (7%) were called active. Many of the other results were omitted from the sample, so actives are more common in it than they were.
Could you please classify the records by z-score using these ranges: L (below -0.4), M (-0.4 to below 0.8), H (0.8 or more)

GGUGAUGAUCCCAUGGGUUTT against Ube2g2 = M
GGUAGAGAAGAACGGUACCTT against Mb21d2 = H
GGGAGAUGUUUGUUUUCAATT against Mmp16 = H
GCAAAUGGUGCAUACGUGATT against Slc35d1 = M
GGGAACCGCUUAUAUGUCCTT against Tbx21 = M

Query string: Quick check: band for GGCAUUGACGAGGAUGACCTT against Supt3
Result string: H

Query string: Quick check: band for GUUUUUGCUAUGGCUCGUATT against H3c1
Result string: H

Query string: Quick check: band for GGGCUAUCGGUUGACAAAUTT against Riok2
Result string: H
